Source: patent US20150147274A1

# TARGET_DESC: T1, MET928 (cMET protein derived from construct 25-928) (human, UniProt P08581 25-928)
# T1 construct: MET ectodomain, residues 1-24 are the leader; produced in Lec 8 cells; background text says the ectodomain is furin-cleaved into alpha (25-307) and beta chains; biotinylated form used in selections; also called MET928 extracellular domain; Met extracellular domain
# ASSAY_SUMMARY: ELISA, soluble scFv
ATTRIBUTE_MEASURED: binding result

[
  {
    "BINDER": "107_A10 (scFv, not shown: 6xHis/tri-FLAG tags) scFv: QMQLVQSGAEVKKPGAPVKVSCKVSGYTFTDYYMHWVQQAPGKGLEWMGLVDPEDGETIYAEKFQGRVTITADTSTDTAYMELSSLRSEDTAVYYCATDATTPYWGMQEWGQGTLVTVSSLEGGGGSGGGGSGGGASDIQMTQSPSSLSASVGDRVTITCQASQDISNYLNWYQQKPGRAPKVLIYDASNLETGVPSRFSGSGSGTEFTLTISNLRPDDFATYYCQQGDSFPLTFGGGTKVEIK",
    "RESULT": "binds"
  },
  {
    "BINDER": "109_H3 (scFv, not shown: 6xHis/tri-FLAG tags) scFv: QMQLVQSGAEVKKPGAPVKVSCKVSGYTFTDYYMHWVQQAPGKGLEWMGLVDPEDGETIYAEKFQGRVTITADTSTDTAYMELSSLRSEDTAVYYCATDATTPYWGMQQWGQGTLVTVSSLEGGGGSGGGGSGGGASDIQMTQSPSSLSASVGDRVTITCQASQDISNYLNWYQQKPGRAPKVLIYDASNLETGVPSRFSGSGSGTEFTLTISNLRPDDFATYYCQQGDSFPLTFGGGTKVEIK",
    "RESULT": "binds"
  }
]
